The reported numbers originate from PubChem BioAssay.

target: Torsin-1A-interacting protein 2 (Homo sapiens) (UniProt Q8NFQ8); assay: LULL1 binders on small-molecule microarray, primary screen, cell lysate, human LULL1 lysate, 635/667 nm fluorescence (AID 1092); conditions: hLULL1 lysate binding, 635 nm fluorescence, higher = more signal;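 also: probe is lysate of COS7 cells overexpressing human LULL1; score merges per-feature 667 nm fluorescence with signal-to-noise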
Sequence (Q8NFQ8 whole entry, looked up): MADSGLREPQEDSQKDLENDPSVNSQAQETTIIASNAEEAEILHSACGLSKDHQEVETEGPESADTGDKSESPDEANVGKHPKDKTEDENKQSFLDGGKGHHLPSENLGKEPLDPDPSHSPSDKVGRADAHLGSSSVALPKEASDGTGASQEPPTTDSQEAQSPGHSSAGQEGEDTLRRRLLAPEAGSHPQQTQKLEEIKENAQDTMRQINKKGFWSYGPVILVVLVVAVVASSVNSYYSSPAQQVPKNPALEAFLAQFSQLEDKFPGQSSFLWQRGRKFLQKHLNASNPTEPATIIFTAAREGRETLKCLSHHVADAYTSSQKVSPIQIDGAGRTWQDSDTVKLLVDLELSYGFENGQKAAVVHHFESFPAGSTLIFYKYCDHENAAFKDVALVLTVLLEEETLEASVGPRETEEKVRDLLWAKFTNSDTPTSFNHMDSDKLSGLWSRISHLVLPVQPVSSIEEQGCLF
Mark Fulfilled for reported composite z-score of 1 or greater; mark Not fulfilled for anything smaller.

{"smi": "O=C(O)[C@H]1C[C@H]2C(=O)N[C@@H](Cc3ccccc3)C(=O)N2[C@H]1c1ccc(O)cc1", "assayed.system": "Torsin-1A-interacting protein 2 (Homo sapiens) (UniProt Q8NFQ8)", "class.name": "Fulfilled"}
{"smi": "C=C(COC)C(=O)CC[C@H](OC(=O)c1ccccc1-c1ccccc1C(=O)O)c1ccccc1OCCO", "assayed.system": "Torsin-1A-interacting protein 2 (Homo sapiens) (UniProt Q8NFQ8)", "class.name": "Fulfilled"}
{"smi": "CCCC[C@@H](O)C1=C(C)C[C@H]2C(=O)N(C)C(=O)[C@H]2[C@H]1CO", "assayed.system": "Torsin-1A-interacting protein 2 (Homo sapiens) (UniProt Q8NFQ8)", "class.name": "Fulfilled"}
{"smi": "Cc1ccc(N2C(=O)c3ccccc3[C@](C)(C(=O)NC3CC3)[C@@H]2c2ccc(CO)cc2)nc1", "assayed.system": "Torsin-1A-interacting protein 2 (Homo sapiens) (UniProt Q8NFQ8)", "class.name": "Not fulfilled"}
{"smi": "CC(C)C(=C=CC[C@H](O)c1ccc(OCCO)cc1)C[C@H](O)COCc1ccccc1", "assayed.system": "Torsin-1A-interacting protein 2 (Homo sapiens) (UniProt Q8NFQ8)", "class.name": "Fulfilled"}
{"smi": "CC(C)(C)OC(=O)CC[C@@]12N=C(c3ccc(OCCCO)cc3)O[C@@H]1c1ccccc1N(Cc1ccccc1)C2=O", "assayed.system": "Torsin-1A-interacting protein 2 (Homo sapiens) (UniProt Q8NFQ8)", "class.name": "Fulfilled"}
{"smi": "C=C(/C(=C/C[C@H](OC(=O)c1ccncc1)c1cccc(OCCO)c1)c1cc(C(=O)OC)ccc1OC)C(C)C", "assayed.system": "Torsin-1A-interacting protein 2 (Homo sapiens) (UniProt Q8NFQ8)", "class.name": "Fulfilled"}
{"smi": "C=C(CCCC)/C(=C/C[C@@H](OC(=O)c1ccncc1)c1ccc(OCCO)cc1)c1cnc2ccccc2c1", "assayed.system": "Torsin-1A-interacting protein 2 (Homo sapiens) (UniProt Q8NFQ8)", "class.name": "Not fulfilled"}

* * *

Some molecules, each annotated with its measured z-score.
test: basal 3T3-L1 adipocyte mitochondrial potential changes, profiling panel, cell-based, JC-1 fluorescence, 3T3-L1 adipocytes, 24 h, 100 nL compound (AID 1168); details: JC-1 mitochondrial fluorescence, higher = more signal, called active from +8 up or from −8 down; also: test concentration not given here

{"molecule": "C=CCC(OC(C)=O)[C@@H]1[C@@H](N(Cc2cccc3ccccc23)C(=O)c2cccc3ccccc23)c2cc(OCCCO)ccc2N1C(=O)Cc1ccc(OC)cc1 (stereo partly drawn)", "z-score": 0.451}
{"molecule": "CCOC(=O)C[C@H]1[C@H](OC(=O)c2ccc(C(=O)c3ccccc3)cc2)[C@@H](NC(=O)Cc2ccc(OC)cc2)c2cc(OCCCO)ccc2N1C(=O)Cc1ccc(OC)cc1", "z-score": 0.755}
{"molecule": "CC(C)CNC(=O)[C@@H]1c2ccccc2C(=O)N(Cc2ccc(OC(F)(F)F)cc2)[C@H]1c1ccc(CO)cc1", "z-score": 1.08}
